Values compiled from PubChem BioAssay (NCI).

Test system: DLD-1 colon
assay.explanation: NCI tumour cell line growth inhibition, 48 h

# compound, system, TGI
data = [
    ("COc1ccc(Cc2nc3ccccc3s2)cc1OC", "DLD-1 colon", "31.7 µM"),
    ("CC1=NN(C(=O)c2ccc(Cl)cc2)C(=O)/C1=C/c1ccc(Cl)cc1", "DLD-1 colon", "> 100 µM"),
    ("O=C(O)[C@@H](NS(=O)(=O)c1ccc2ccccc2c1)c1ccccc1", "DLD-1 colon", "> 100 µM"),
    ("NC(=O)C12CC3CC(CC(Br)(C3)C1)C2", "DLD-1 colon", "> 100 µM"),
    ("O=C(CCc1nc(=S)[nH][nH]1)Nc1cccc(C(F)(F)F)c1", "DLD-1 colon", "> 100 µM"),
    ("Nc1ncnc2c1nnn2C1C=C(CO)C(O)C1O (stereo not given)", "DLD-1 colon", "> 92.6 µM"),
    ("CCC1C(=O)OCc2c1cc1n(c2=O)C(CC)c2c-1nc1ccccc1c2Cl (stereo not given)", "DLD-1 colon", "> 100 µM"),
    ("COc1ccc(-c2onc(-c3c(C)cc(C)cc3C)c2C2=NCCN2)cc1", "DLD-1 colon", "> 100 µM"),
    ("Nc1ccc(C(=O)N/C(=C\\c2cccc([N+](=O)[O-])c2)c2nc3ccc(Cl)cc3[nH]2)cc1", "DLD-1 colon", "> 100 µM"),
    ("CC(=O)Nc1ccc(C(=O)NN2C(=O)C(Cl)C2c2ccc(O)cc2)cc1 (stereo not given)", "DLD-1 colon", "> 100 µM"),
    ("O=C(O)COc1ccc(C(=O)/C(SS/C(C(=O)c2ccc(OCC(=O)O)c(Cl)c2Cl)=C2\\C=C(c3ccc(Br)cc3)SS2)=C2/C=C(c3ccc(Br)cc3)SS2)c(Cl)c1Cl", "DLD-1 colon", "> 63.2 µM"),
    ("O=C(N/C(=C\\c1cc(Cl)ccc1Cl)c1nc2ccc(Cl)cc2[nH]1)c1ccccc1", "DLD-1 colon", "26.7 µM"),
    ("COC(=O)C#CCC1CCCC1C1SCCS1 (stereo not given)", "DLD-1 colon", "> 100 µM"),
    ("CCC[CH2][Sn]([CH2]CCC)([O]C(=O)/C=C/c1ccccc1F)[O]C(=O)/C=C/c1ccccc1F", "DLD-1 colon", "1.5 µM"),
    ("O=C(NCC(=O)N1CCOC1=O)OCc1ccccc1", "DLD-1 colon", "> 100 µM"),
]

----------
The following compounds are listed with their measured TGI values.
Tested on: EKVX NSCLC
assay.explanation: NCI tumour cell line growth inhibition, 48 h
value.kind: TGI (µM)

# compound, value.kind, value.relation.sign, measured.number
data = [
    ("CCCCc1ccc(-n2sc3ncccc3c2=O)cc1", "TGI", "=", 25.2),
    ("CC(=O)C12C[C@](C#N)(N3CCCCCC3)C1C=Cc1ccccc12 (stereo not given in full)", "TGI", ">", 100),
    ("Cc1ccc(N=C2SC(c3ccc(C)cc3)(c3ccc(C)cc3)c3ccccc32)cc1", "TGI", ">", 100),
    ("NS(=O)(=O)c1cccc(-c2ccc3c(NC(=O)C4CC4)n[nH]c3c2)c1", "TGI", ">", 25),
    ("CC(C)(C)OC(=O)NCC(=O)NC1C/C(=N\\O)c2sccc21 (stereo not given)", "TGI", ">", 100),
    ("[N-]=[N+]=NC[C@H]1OCO[C@H](CN=[N+]=[N-])[C@H]2OCCOCCOc3ccccc3OCCOCCO[C@@H]21", "TGI", ">", 100),
    ("COc1cccc(C2C(C#N)=C(N)Oc3c2ccc2ccccc32)c1 (stereo not given)", "TGI", "=", 19.6),
    ("C=C1CC[C@@H]2[C@](C)(COC(C)=O)[C@H](OC(C)=O)CC[C@@]2(C)[C@@H]1CC(Nc1ccc(S(=O)(=O)Nc2nccs2)cc1)C1=CCOC1=O (stereo not given in full)", "TGI", "=", 27),
    ("O=c1c(-c2ccccc2)coc2cc(OC/C(=N/O)c3ccc(F)cc3)ccc12", "TGI", "=", 26.1),
    ("S=C(N/N=C\\c1ccccn1)N(Cc1ccccn1)Cc1ccccn1", "TGI", "=", 17.2),
]

----------
Parameter: TGI. Scope: all listed entries.
Test system: SW-620 colon
assay.explanation: NCI tumour cell line growth inhibition, 48 h
value.kind: TGI (µM)

# compound, system, unit.annotation, value.relation.sign, measured.number
measured = [
    ("Oc1c(Cl)cc(Cl)c2cccnc12", "SW-620 colon", "µM", "=", 18.4),
    ("CN(C)C(=O)C(F)(F)C(c1ccc(Br)cc1)C1C(=O)N(C)C(=O)N(C)C1=O (stereo not drawn)", "SW-620 colon", "µM", ">", 100),
    ("COc1cc(/C=C/[N+](=O)[O-])cc(OC)c1OC", "SW-620 colon", "µM", "=", 4.16),
    ("NNc1c2ccccc2nc2ccccc12", "SW-620 colon", "µM", "=", 27.4),
    ("Cc1c2ccncc2c(C)c2c1c1cc(CO)ccc1n2C", "SW-620 colon", "µM", "=", 10.9),
    ("CC1(C)CCCCCCCCCC(C)(CCCCCCCCCCCCO)C1=O (stereo not drawn)", "SW-620 colon", "µM", "=", 32.5),
    ("NCCC(=O)NC(Cc1cnc[nH]1)C(=O)O (stereo not drawn)", "SW-620 colon", "µM", ">", 100),
    ("O=c1c(-c2ccccc2)coc2cc(OC/C(=N/O)c3ccc(F)cc3)ccc12", "SW-620 colon", "µM", "=", 33.4),
    ("COc1cc(OC)cc(-c2n/c(=C\\c3c(O)[nH]c4ccc(Cl)cc34)cc3c2=Nc2ccccc2-3)c1", "SW-620 colon", "µM", "=", 8),
    ("O=C(COc1ccc(Cl)cc1)N1CCN(C(=O)COc2ccc(Cl)cc2)c2ccccc21", "SW-620 colon", "µM", ">", 100),
    ("COc1cccc(CC(C)=C(c2ccc(OCCCN(C)C)cc2)c2ccc(OCCCN(C)C)cc2)c1", "SW-620 colon", "µM", "=", 0.867),
    ("Oc1ccc(Cl)cc1C1=N/C(=N\\C/N=C2\\N=C(c3cc(Cl)ccc3O)CC(c3ccccc3)N2)NC(c2ccccc2)C1 (stereo not drawn)", "SW-620 colon", "µM", ">", 100),
    ("CC1=NN(C(=O)c2ccc(Cl)cc2)C(=O)/C1=C/c1ccc(Cl)cc1", "SW-620 colon", "µM", ">", 100),
]

----------
System: MCF7 breast
assay.explanation: NCI tumour cell line growth inhibition, 48 h
value.kind: TGI

# molecule, value.kind, result
measured = [
    ("CCOC(=O)c1c(N2CCOCC2)[nH]c(=O)c(C(c2cccs2)c2c(O)c(C(=O)OCC)c(N3CCOCC3)[nH]c2=O)c1O", "TGI", "> 100 µM"),
    ("CC(C)=Nn1cnc(C(=N)C#N)c1N", "TGI", "> 100 µM"),
    ("COc1ccc(Oc2ccccc2NC(=O)CNC(=O)c2cccc3ccccc23)cc1", "TGI", "> 25 µM"),
    ("CCn1c2ccc(O)c(C(=O)OC)c2c2cc3ccccc3c(O)c21", "TGI", "> 100 µM"),
    ("O=NN(CCCl)C(=O)NC1CCC(=O)NC1=O (stereo unspecified)", "TGI", "> 1190 µM"),
    ("CC(=O)C12C[C@](C#N)(N3CCCCCC3)C1C=Cc1ccccc12 (stereo partly specified)", "TGI", "> 100 µM"),
]

----------
Test system: PC-3 prostate
assay.explanation: NCI tumour cell line growth inhibition, 48 h

# compound, system, TGI
records = [
    ("COC(=O)/C=C/c1cc(OC)c2oc(-c3ccc(OC)c(OC)c3)c(C(=O)OC)c2c1", "PC-3 prostate", "> 100 µM"),
    ("c1csc(-c2csc(-c3ccsc3)c2)c1", "PC-3 prostate", "> 100 µM"),
    ("COc1cc2c(cc1C)NC(=O)/C2=C\\c1ccncc1", "PC-3 prostate", "> 100 µM"),
    ("COc1cc(/C=N\\NC(=O)C[N+](C)(C)C)cc(OC)c1OC", "PC-3 prostate", "> 10 µM"),
    ("CC(=O)CC(C)(C)NC(=O)[C@@]1(O)CC[C@H]2[C@@H]3CCC4=CC(=O)CC[C@@H]4[C@H]3CC[C@@]21C", "PC-3 prostate", "> 100 µM"),
    ("CCN(CC)C(=O)COc1cc2c(O)c3c(O)c(C)c4c(c13)C(=O)C(C)(OC=CC(OC)C(C)C(OC(C)=O)C(C)C(O)C(C)C(O)C(C)C=CC=C(C)C(=O)N2)O4 (centres undefined)", "PC-3 prostate", "> 100 µM"),
    ("CC(=O)O[C@H]1CN(S(=O)(=O)c2ccc(C)cc2)C[C@@H]1C1CCCCC1", "PC-3 prostate", "58.5 µM"),
    ("N=C(N)SCCCN", "PC-3 prostate", "54.1 µM"),
    ("O=C1CCC2(O)C3Cc4ccc(Oc5nnnn5-c5ccccc5)c5c4C2(CCN3CC2CC2)C1O5 (centres undefined)", "PC-3 prostate", "> 100 µM"),
    ("C=C1CC[C@@H]2[C@](C)(COC(C)=O)[C@H](OC(C)=O)CC[C@@]2(C)[C@@H]1CC(Nc1ccc(S(=O)(=O)Nc2nccs2)cc1)C1=CCOC1=O (some centres undefined)", "PC-3 prostate", "21.5 µM"),
    ("Cc1oc2c(c1C(=O)N1CC[C@@H](N)C1)C(=O)c1c(c(O)c3ccccc3c1O)C2=O", "PC-3 prostate", "10.9 µM"),
    ("CCCCCn1c(=O)c2c(=O)[nH][nH]c2c2ccccc21", "PC-3 prostate", "> 100 µM"),
    ("Cc1c(C#N)c2nnn(-c3ccccc3)c(=O)n2c1-c1ccccc1", "PC-3 prostate", "> 100 µM"),
    ("COc1cc2c(c(OC)c1OC)-c1c(cc3c(c1OC)OCO3)CC(C)C(C)(O)C2OC(=O)c1ccccc1 (centres undefined)", "PC-3 prostate", "> 100 µM"),
    ("O=c1cccc(C#CC#CCCCO)o1", "PC-3 prostate", "> 22.8 µM"),
    ("CC(C)(C)c1cc(C(=O)/C=C/c2ccn[nH]2)cc(C(C)(C)C)c1O", "PC-3 prostate", "5.18 µM"),
    ("Cc1cc(O)ccc1C1(c2ccc(F)cc2)OC(=O)c2ccccc21 (centres undefined)", "PC-3 prostate", "5.28 µM"),
    ("NC(=O)c1cccc(-c2cc(C(N)=O)ccc2Cl)c1", "PC-3 prostate", "40.9 µM"),
    ("COc1cc([C@H]2Oc3c(OC)cc(CCCO)cc3[C@@H]2CO)ccc1O", "PC-3 prostate", "> 100 µM"),
    ("O=C(N/N=C/c1ccc(Cl)cc1)c1cc(I)cc(I)c1O", "PC-3 prostate", "> 100 µM"),
    ("COC1=CC(=O)c2c(O)c3c(c(O)c2C1=O)C[C@](C)(O)C[C@@H]3O", "PC-3 prostate", "> 42.5 µM"),
    ("O=c1c(-c2ccccc2)coc2cc(OC/C(=N/O)c3ccc(F)cc3)ccc12", "PC-3 prostate", "45.9 µM"),
    ("C/C=C/[C@H]1O[C@@](O)([C@@H](C)[C@H](O)[C@H](C)[C@H]2OC(=O)/C(OC)=C/C(C)=C/[C@@H](C)[C@@H](O)[C@@H](CC)[C@@H](O)[C@H](C)C/C(C)=C/C=C/[C@@H]2OC)C[C@H](OC2CC(O)C(OC(N)=O)C(C)O2)[C@@H]1C (some centres undefined)", "PC-3 prostate", "15.1 µM"),
    ("CSCCCNC(=O)c1csc(-c2csc(CCNC(=O)CNC(=O)CNC(=O)CNC(=O)OC(C)(C)C)n2)n1", "PC-3 prostate", "> 100 µM"),
    ("C=CCn1c(=O)c2cnc(Nc3ccc(N4CCN(C)CC4)cc3)nc2n1-c1cccc(C(C)(C)O)n1", "PC-3 prostate", "> 65.6 µM"),
    ("Cn1nnc2c(C(N)=O)ncn2c1=O", "PC-3 prostate", "> 100 µM"),
    ("O/N=C1\\CCc2nonc2\\C1=N/Nc1ccccc1", "PC-3 prostate", "> 100 µM"),
    ("Cc1nn(C(=O)c2ccncc2)c2c1C(c1cccc([N+](=O)[O-])c1)SC(N)=N2 (centres undefined)", "PC-3 prostate", "> 10 µM"),
    ("COc1cc(C2CC(=O)Nc3c2cc(Br)c2ccccc32)cc(Br)c1OC (centres undefined)", "PC-3 prostate", "> 100 µM"),
    ("COc1nc(OC)nc(-c2cccc(F)c2)n1", "PC-3 prostate", "40.2 µM"),
    ("C[C@@H]1CC[C@@H](C)[C@](C)(CCc2ccoc2)C/C=C\\C=C/1C(=O)O", "PC-3 prostate", "> 50 µM"),
    ("CCOC1OC(=O)[C@H]2[C@@H]1[C@@H]1CC[C@H]2O1 (some centres undefined)", "PC-3 prostate", "> 100 µM"),
    ("COc1cccc(CC(C)=C(c2ccc(OCCCN(C)C)cc2)c2ccc(OCCCN(C)C)cc2)c1", "PC-3 prostate", "2.46 µM"),
    ("N#CC1(c2ccccc2)CCN(C2(c3ccccc3)CCCCC2)CC1", "PC-3 prostate", "> 100 µM"),
    ("O=S(=O)(O)c1cc(O)c2c(O)c(N=Nc3cccc4ccccc34)c(S(=O)(=O)O)cc2c1", "PC-3 prostate", "> 100 µM"),
    ("Oc1nc(N/N=C/c2ccccc2)[nH]c1/C=C1\\C=Nc2ccccc21", "PC-3 prostate", "> 100 µM"),
    ("CN1CCN(c2cc3nc4ccccc4n(-c4ccc(Cl)cc4)c-3cc2=N)CC1", "PC-3 prostate", "86.8 µM"),
    ("CN(C)Cc1cc(C(=O)/C=C/c2cccc(Cl)c2)cc(CN(C)C)c1O", "PC-3 prostate", "22.8 µM"),
    ("COc1ccc(-c2ccc(/C=N/n3c(COc4ccccc4Cl)n[nH]c3=S)o2)c([N+](=O)[O-])c1", "PC-3 prostate", "79.4 µM"),
]
